All figures here come from patent US11555032B2.

target: human FXR (NR1H4) (Homo sapiens, UniProt Q96RI1); assay: Human FXR (NRIH4) Assay, luciferase reporter; settings: CHO reporter cells expressing human NR1H4, luciferase, 22 hours incubation
Sequence (Q96RI1 whole entry): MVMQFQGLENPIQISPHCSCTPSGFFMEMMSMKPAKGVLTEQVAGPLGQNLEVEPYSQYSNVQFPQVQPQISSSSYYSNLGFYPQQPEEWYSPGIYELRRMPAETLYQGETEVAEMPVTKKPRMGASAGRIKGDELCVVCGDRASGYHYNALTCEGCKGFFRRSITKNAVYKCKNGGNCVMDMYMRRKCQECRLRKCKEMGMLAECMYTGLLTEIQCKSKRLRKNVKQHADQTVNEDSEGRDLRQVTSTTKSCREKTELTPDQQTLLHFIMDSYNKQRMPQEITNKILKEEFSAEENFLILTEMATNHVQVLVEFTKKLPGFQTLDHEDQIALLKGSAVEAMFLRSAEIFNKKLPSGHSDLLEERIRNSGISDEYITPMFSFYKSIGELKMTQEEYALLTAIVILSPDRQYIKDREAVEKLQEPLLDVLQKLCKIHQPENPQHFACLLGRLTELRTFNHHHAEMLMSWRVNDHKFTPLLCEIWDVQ
pEC50: −log10 of the molar value.
Answer each item with its documented pEC50.

Completed entries (count: 2):
O=C(O)c1ccc(SC2C3CCC2CC(OCc2c(-c4ccccc4OC(F)(F)F)noc2C2CC2)C3)cc1 (stereo not drawn) [Example 11-13]    6.30 to 7.60
O=C(O)c1cnc(NC2C3CCC2CC(OCc2c(-c4ccccc4OC(F)(F)F)noc2C2CC2)C3)c(C(F)(F)F)c1 (stereo not drawn) [Example 3-5]    6.30 to 7.60

Give pEC50 for each of the items listed below.
1. CC(C)Oc1cc(C(=O)O)cc2sc(N[C@@H]3C[C@@H]4C[C@H]3C[C@@H]4OCc3c(-c4ccccc4OC(F)(F)F)noc3C3CC3)nc12 [Example 6]
2. O=C(O)c1cc(OC(F)(F)F)c2nc(NC3C4CCC3CC(OCc3c(-c5ccccc5OC(F)(F)F)noc3C3CC3)C4)sc2c1 (stereo not drawn) [Example 37]
3. NS(=O)(=O)c1ccc(NC2C3CCC2CC(OCc2c(-c4ccccc4OC(F)(F)F)noc2C2CC2)C3)nc1 (stereo not drawn) [Example 8-3]
4. O=S(=O)(NC1C2CCC1CC(OCc1c(-c3ccccc3OC(F)(F)F)noc1C1CC1)C2)c1cccc2ncccc12 (stereo not drawn) [Example 9-16]

["6.30 to 7.60", "> 7.60", "6.30 to 7.60", "> 7.60"]
